# Tested on: THRa:RXRa (NR concentration 90 nM, RXRa partner concentration 90 nM)
# Test Summary: PBM binding z-score (relative to random genomic background probes); higher = stronger binding; sequences stand for … in GC…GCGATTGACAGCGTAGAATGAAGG
Quantity Measured: PBM binding z-score

| Item Sequence | PBM binding z-score |
| --- | --- |
| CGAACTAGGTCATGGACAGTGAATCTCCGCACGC | 2.94 |

Query: What value of PBM binding z-score has been reported for the following sequence? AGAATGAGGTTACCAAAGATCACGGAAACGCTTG
Reply: 3.03

Query: Item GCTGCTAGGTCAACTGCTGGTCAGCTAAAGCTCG has what recorded PBM binding z-score?
Reply: 2.92

* * *

# Test system: LXRa homodimer (NR concentration 270 nM)
# Test Summary: PBM binding z-score (relative to random genomic background probes); higher = stronger binding; sequences stand for … in GC…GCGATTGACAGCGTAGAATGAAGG
Quantity Measured: PBM binding z-score

For orientation, consider the following solved cases.
| Item Sequence | Assayed System | PBM binding z-score |
| --- | --- | --- |
| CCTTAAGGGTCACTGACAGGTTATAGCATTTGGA | LXRa homodimer (NR concentration 270 nM) | 0.887 |
| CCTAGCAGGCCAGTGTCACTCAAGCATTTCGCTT | LXRa homodimer (NR concentration 270 nM) | -0.614 |

Would you kindly look at the next entry?
Query: Bench note: what PBM binding z-score did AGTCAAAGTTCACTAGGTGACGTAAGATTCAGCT show?
Reply: 3.15

* * *

# Tested on: RARa homodimer (NR concentration 270 nM)
# Test Summary: PBM binding z-score (relative to random genomic background probes); higher = stronger binding; sequences stand for … in GC…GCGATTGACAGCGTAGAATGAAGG
Quantity Measured: PBM binding z-score
Answer field: number only, no words.

Completed entries (count: 10):
| Item Sequence | Assayed System | Result |
| --- | --- | --- |
| GCTGCTAGGTCAGGTTGGTCATCTAACGGGTACG | RARa homodimer (NR concentration 270 nM) | -0.199 |
| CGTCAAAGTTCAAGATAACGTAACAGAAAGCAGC | RARa homodimer (NR concentration 270 nM) | 2.34 |
| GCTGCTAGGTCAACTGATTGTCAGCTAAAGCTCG | RARa homodimer (NR concentration 270 nM) | -0.584 |
| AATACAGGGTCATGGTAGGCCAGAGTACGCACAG | RARa homodimer (NR concentration 270 nM) | 1.28 |
| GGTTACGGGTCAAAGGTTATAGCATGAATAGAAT | RARa homodimer (NR concentration 270 nM) | 1.03 |
| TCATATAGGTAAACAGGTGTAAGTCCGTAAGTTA | RARa homodimer (NR concentration 270 nM) | 1.32 |
| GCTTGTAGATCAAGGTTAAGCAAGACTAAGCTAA | RARa homodimer (NR concentration 270 nM) | -0.348 |
| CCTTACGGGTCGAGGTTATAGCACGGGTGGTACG | RARa homodimer (NR concentration 270 nM) | -0.219 |
| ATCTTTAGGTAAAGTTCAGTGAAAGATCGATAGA | RARa homodimer (NR concentration 270 nM) | 0.483 |
| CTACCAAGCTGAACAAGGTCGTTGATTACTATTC | RARa homodimer (NR concentration 270 nM) | 0.561 |

Query: Tell me the measured PBM binding z-score of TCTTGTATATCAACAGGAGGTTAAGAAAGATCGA , please.
Reply: 0.86

Query: Could you tell me which PBM binding z-score is on file for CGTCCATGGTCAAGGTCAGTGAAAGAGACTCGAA ?
Reply: 0.236

These measurements were taken from the supplement of paper PMC6555819.
